Data origin: the supplement of paper PMC9732359

method: protein stability index of a GFP-peptide fusion (yeast GPS) (PSI 1-4); higher = more stable; sorted into four equal gates, so the index is relative within each strain
assay-context: ubr1∆
Reported protein stability index is given for each of the following sequences.

[[record]]
macromolecule_sequence = "PFKRKMLLVDIIPSRMG [REC8]"
observable = "protein stability index"
result = 2.15

[[record]]
macromolecule_sequence = "QIAAQSPVELSRMFEEV [SMC1]"
observable = "protein stability index"
result = 3.27


// field: protein stability index; key: NARIYNTEGSVVYEDSL [SNF2] ; value = 3.25

// field: protein stability index; key: IVFVHSRKETSRTATWL [BRR2] ; value = 2.89

// field: protein stability index; key: SIGEPATQMTLNTFHFA [RPO21] ; value = 2.75

// field: protein stability index; key: EARLRNLTYSSGLFVDV [RPB2] ; value = 1.79

// field: protein stability index; key: NDDSSSMNATMRNFSKQ [YDL088C/ASM4] ; value = 2.93

// field: protein stability index; key: FTNLGIIVQYLTKFRQK [RGR1] ; value = 2.28

// field: protein stability index; key: KKRKAGRPRGRPKKVKL [SNF2] ; value = 2.9

----------
method: protein stability index of a GFP-peptide fusion (yeast GPS) (PSI 1-4); higher = more stable; sorted into four equal gates, so the index is relative within each strain
assay-context: doa10∆
observable: protein stability index

[[record]]
macromolecule_sequence = "DNSFNELTDNMSDFVPI [MCD1]"
result = 2.95

[[record]]
macromolecule_sequence = "ELLEHIETIGHLITKEE [RPN5]"
result = 2.91

[[record]]
macromolecule_sequence = "AAPSAADIKAVVESVGA [RPP2B]"
result = 3.08


Now consider a different sequence.
// field: protein stability index; key: GRSNEIVKTTTKQRLDA [PRP8] ; value = 3.06

----------
method: protein stability index of a GFP-peptide fusion (yeast GPS) (PSI 1-4); higher = more stable; sorted into four equal gates, so the index is relative within each strain
assay-context: doa10∆
Label class 0 if protein stability index falls below 3; label class 1 in every other case.

Example cases with answers are listed next.
[[record]]
macromolecule_sequence = "LGRLVKAGKITTIEEIF [RPS2]"
classification = "class 0"

[[record]]
macromolecule_sequence = "EGGKNQAELLQLAVKII [YJL039C/NUP192]"
classification = "class 0"

[[record]]
macromolecule_sequence = "NIWGTVRTNRFDIIEES [ECM29]"
classification = "class 0"

[[record]]
macromolecule_sequence = "DNGESAFRTLRLARSEK [RPL13A]"
classification = "class 1"

[[record]]
macromolecule_sequence = "LDPLARVSKDKKSGSLT [FAS2]"
classification = "class 1"

[[record]]
macromolecule_sequence = "ADESKMAKLNECPLDPG [RET1]"
classification = "class 0"


Q. In plain terms: is recorded protein stability index at least 3 for NSAIANEQEEKSEEVKA [RPC37] ?
A. class 0

Q. In plain terms: is recorded protein stability index at least 3 for CAACHSLDRVAWRTLVG [CYT1] ?
A. class 0

----------
Reported protein stability index is given for each of the following sequences.
method: protein stability index of a GFP-peptide fusion (yeast GPS) (PSI 1-4); higher = more stable; sorted into four equal gates, so the index is relative within each strain
assay-context: ubr1∆
When you answer, write just the number.

Sample records with protein stability index:
[[record]]
macromolecule_sequence = "TVLFFIGVRCYEAYPNT [FAS1]"
numeric_readout = 1.8

[[record]]
macromolecule_sequence = "CRKCYARLPPRATNCRK [RPL40A]"
numeric_readout = 2.92

[[record]]
macromolecule_sequence = "VEEDHTLGNALRYVIMK [RPC19]"
numeric_readout = 2.73

[[record]]
macromolecule_sequence = "CVNLSLFDARFERKNPH [SRB8]"
numeric_readout = 3.17

[[record]]
macromolecule_sequence = "ADEDDEDAKYVINLKQI [RPT1]"
numeric_readout = 2.61


// field: protein stability index; key: DPFSDVDDDQDYVVAPG [GRR1] ; value = 3.55

// field: protein stability index; key: MSESSDISAMQPVNPKP [SMX3] ; value = 3.17

// field: protein stability index; key: NLTAGIIVAGYDDKNKG [PRE3] ; value = 2.16

// field: protein stability index; key: VHPFHVLRINKMLSCAG [RPL10] ; value = 1.05
